- ASSAY_TARGET: T1, APBA1_2, Q02410
- T1 sequence (Q02410 742-832, limits assumed, looked up): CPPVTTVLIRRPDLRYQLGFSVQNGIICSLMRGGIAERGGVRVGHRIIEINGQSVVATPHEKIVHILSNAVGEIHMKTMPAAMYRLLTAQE
- PROCEDURE_TEXT: holdup assay
- Set-up: key: below the threshold = too weak to quantify, mostly under pKd 3.1 to 4
- ASSAY_SETUP: plain residues with an end cap or a label only (N-terminal biotin on a linker: ado-ado)
I'd be grateful if you could share measured pKd for these entries.
Answer with a bare number; do not write a unit.

Fill in the blank: the reported pKd of SGDGKTSVWI [GJC1, P36383] is ____.
4.44

Form field: reported pKd of GNDPDRGTSI [GRID2, O43424]
3.65

For the binder shown here, THREVKFTSL [CD46, P15529] , give the reported pKd.
3.64
